MEASUREMENT_TYPE: melting point

Guide cases for melting point, answers given:
{"COMPOUND": "C=C1C(=O)N(c2cc(OC)c(OC)c(OC)c2)[C@H]1c1ccc(OC)c(OC(=O)N2CCOCC2)c1 [Compound 25]", "melting point": "82 to 83 °C"}
{"COMPOUND": "C=C1C(=O)N(c2cc(OC)c(OC)c(OC)c2)[C@H]1c1ccc(OC)c(Cl)c1 [Compound 39]", "melting point": "119 to 120 °C"}
{"COMPOUND": "C=C1C(=O)N(c2cc(OC)c(OC)c(OC)c2)[C@H]1c1ccc(OC)c(OCCC)c1 [Compound 4]", "melting point": "90 to 91 °C"}
{"COMPOUND": "C#CCOc1cc([C@H]2C(=C)C(=O)N2c2cc(OC)c(OC)c(OC)c2)ccc1OC [Compound 7]", "melting point": "106 to 107 °C"}
{"COMPOUND": "COc1ccc([C@H]2/C(=C/C[Si](C)(C)C)C(=O)N2c2cc(OC)c(OC)c(OC)c2)cc1O [Compound 53]", "melting point": "67 to 69 °C"}
{"COMPOUND": "C=C1C(=O)N(c2cc(OC)c(OC)c(OC)c2)[C@H]1c1ccc(OC)c(OS(N)(=O)=O)c1 [Compound 26]", "melting point": "199 to 200 °C"}
{"COMPOUND": "C=C1C(=O)N(c2cc(OC)c(OC)c(OC)c2)[C@H]1c1ccc(OC)c(NS(N)(=O)=O)c1 [Compound 44]", "melting point": "101 to 102 °C"}
{"COMPOUND": "C=C1C(=O)N(c2cc(OC)c(OC)c(OC)c2)[C@H]1c1ccc(OC)c(OC(=O)CNC(=O)OC(C)(C)C)c1 [Compound 34]", "melting point": "88 to 89 °C"}

Look at this compound and give its reported melting point. C=C1C(=O)N(c2ccc(OC)c(OC)c2)[C@H]1c1ccc(OC)c(O)c1 [Compound 48]
74 to 75 °C

Look at this compound and give its reported melting point. C=C1C(=O)N(c2cc(OC)c(OC)c(OC)c2)[C@H]1c1ccc(OC)c(OC(C)C)c1 [Compound 5]
146 to 147 °C

Look at this compound and give its reported melting point. C=C1C(=O)N(c2cc(OC)c(OC)c(OC)c2)[C@H]1c1ccc(OC)c(OC)c1 [Compound 2]
138 to 139 °C

Look at this compound and give its reported melting point. C=CC(=O)Nc1cc([C@H]2C(=C)C(=O)N2c2cc(OC)c(OC)c(OC)c2)ccc1OC [Compound 42]
143 to 144 °C

Look at this compound and give its reported melting point. C=C1C(=O)N(c2cc(OC)c(OC)c(OC)c2)[C@H]1c1ccc(OC)c(OC(=O)c2ccc([N+](=O)[O-])cc2)c1 [Compound 19]
88 to 89 °C

Look at this compound and give its reported melting point. C=C1C(=O)N(c2cc(OC)c(OC)c(OC)c2)[C@H]1c1ccc(OC)c(NC(=O)C2CC2)c1 [Compound 45]
181 to 182 °C

Look at this compound and give its reported melting point. C=C1C(=O)N(c2cc(OC)c(OC)c(OC)c2)[C@H]1c1ccc(OC)c(OS(=O)(=O)CCN2C(=O)c3ccccc3C2=O)c1 [Compound 28]
69 to 70 °C

----------
Test system: MDA-MB-231
TEST_SUMMARY: In vitro cell growth inhibition assay (MTT)
Type: cell-based, human
EXPERIMENTAL_SETUP: MDA-MB-231 human breast cancer cell line, 48 h, MTT; read-out: IC50 MDA-MB-231
pIC50: −log10 of the molar value.
Outcome label depends on pIC50 relative to 6: at/above gives MET, below gives NOT MET.

{"CHEM_SMILES": "COc1ccc([C@H]2[C@H](NC(C)=O)C(=O)N2c2cc(OC)c(OC)c(OC)c2)cc1O", "CLASS_NAME": "MET"}
{"CHEM_SMILES": "COc1ccc([C@H]2[C@@H](CN(C)C)C(=O)N2c2cc(OC)c(OC)c(OC)c2)cc1O", "CLASS_NAME": "NOT MET"}
{"CHEM_SMILES": "C=C1C(=O)N(c2cc(OC)c(OC)c(OC)c2)[C@H]1c1ccc(OC)c(OC(C)C)c1", "CLASS_NAME": "NOT MET"}
{"CHEM_SMILES": "C=C1C(=O)N(c2cc(OC)c(OC)c(OC)c2)[C@@H]1c1ccc(OC)c(O)c1", "CLASS_NAME": "NOT MET"}

Confirm if pIC50 reported for the compound "COc1ccc([C@@H]2N(c3cc(OC)c(OC)c(OC)c3)C(=O)[C@]2(O)CO)cc1O" is 6 or above.
NOT MET

Confirm if pIC50 reported for the compound "C=C1C(=O)N(c2cc(OC)c(OC)c(OC)c2)[C@H]1c1ccc(OC)c(OS(=O)(=O)Cc2ccccc2)c1" is 6 or above.
NOT MET

Confirm if pIC50 reported for the compound "C=C1C(=O)N(c2cc(OC)c(OC)c(OC)c2)[C@H]1c1ccc(OC)c(OS(=O)(=O)CCN2C(=O)c3ccccc3C2=O)c1" is 6 or above.
NOT MET

Confirm if pIC50 reported for the compound "C=C1C(=O)N(c2cc(OC)c(OC)c(OC)c2)[C@H]1c1ccc(C)cc1" is 6 or above.
MET

Confirm if pIC50 reported for the compound "C=C1C(=O)N(c2cc(OC)c(OC)c(OC)c2)[C@H]1c1ccc(OC)c(OCCCl)c1" is 6 or above.
MET
